Test system: SF-539 CNS
protocol_summary: NCI-60 one-dose screen, 48 h (100 = growth as untreated, 0 = no growth, -100 = all killed)
condition_notes: 10 µM unless noted
Protocol: Cells are grown in 96 well plates and exposed to the test compound for 48 hours. Compounds are tested at a single concentration, which is 10^-5 M for most compounds. The reported endpoint is percent growth (GI% or GIPRCNT), where numbers from 0 - 100% represent growth inhibition, and numbers from -100% - 0 represent cell death. For example, a value of 40 represents 60% growth inhibition. A value of 0 means no net growth occurred over the course of the experiment. […]
About 83,000 compounds went through this panel and 20% of them were active in at least one assay; those are over-represented in the sample as a whole.

{"columns": ["compound", "growth (%)"],
 "data": [
  ["NC(=O)OCCO", 108],
  ["CC(C)(C)[Si](C)(C)OCC1OC(n2cnc3c(N)ncnc32)CC1OS(C)(=O)=O (centres undefined)", 108],
  ["O=C1C=C(c2ccccc2)C(O)(c2ccccc2)C1 (centres undefined)", 104],
  ["N#Cc1ccc(OC(=O)Nc2c(Cl)cc(Cl)cc2Cl)cc1", 91.7],
  ["CCC(/C=C\\C(C)=O)CC", 100],
  ["COC1CC(OC(=O)c2ccc([N+](=O)[O-])cc2)C(COC(=O)c2ccc([N+](=O)[O-])cc2)O1 (centres undefined)", 105],
  ["Oc1ccc(CCC2CCNc3ccccc32)cc1 (centres undefined)", 75.7],
  ["CC(C)(N)CO[C@H]1C[C@H]2CC[C@@]1(C)C2(C)C", 99.4],
  ["COc1ccc2c(c1)Nc1ccccc1S2", 103],
  ["Cc1cc(CO)c(O)c(CO)c1", 110],
  ["CCN(Cc1ccc(Cl)c(Cl)c1)c1ccc2nc(N)nc(N)c2c1C", -97.8],
  ["CC(=O)NC(CCc1ccc(Cl)c(Cl)c1)c1cccc(O)c(=O)c1 (centres undefined)", 2.57],
  ["Cc1ccc(S(=O)(=O)CCCl)cc1", 100],
  ["C=CCC(O)C=C (centres undefined)", 104]
]}

* * *

growth: recorded values
System: MDA-MB-231 breast
protocol_summary: NCI-60 one-dose screen, 48 h (100 = growth as untreated, 0 = no growth, -100 = all killed)
condition_notes: 10 µM unless noted
About 83,000 compounds went through this panel and 20% of them were active in at least one assay; those are over-represented in the sample as a whole.

{"columns": ["compound", "growth (%)"],
 "data": [
  ["CCCc1cccc(CCC)c1NC(=O)Nc1cc(Cl)cc(Cl)c1", 90.2],
  ["COc1ccc(C(=O)/C(=N/Nc2ccccc2)c2ccc(OC)cc2)cc1", 82.7],
  ["OCCNc1ccccc1", 104],
  ["CC(C)OCC(CCl)OC(=O)Nc1ccccc1 (configuration not stated)", 94.8],
  ["Oc1ccc(CCC2CCNc3ccccc32)cc1 (configuration not stated)", 86.2],
  ["Cc1ccc(NCN2C(=O)c3ccccc3C2=O)c(C)n1", 115],
  ["CC1(C)OC2C(CO)OC(n3ccc(=O)[nH]c3=O)C2O1 (configuration not stated)", 92.9],
  ["COc1cccc2c1Cc1ccccc1-2", 93.6],
  ["Cc1cc(C)cc(OCC(=O)O)c1", 106],
  ["COc1cc(OC)c2cc(C(=O)c3ccc(C#N)cc3)c(=O)oc2c1", 79.3],
  ["O=C(OCC1CCCO1)c1ccc([N+](=O)[O-])cc1 (configuration not stated)", 106],
  ["Cc1ccc2nc(-c3ccc(N=Cc4ccccc4O)cc3)sc2c1", 62.2],
  ["c1ccc(-c2ccc3ccccc3c2)cc1", 91],
  ["CN1CCN(C(=S)S)CC1", 106],
  ["O=c1cc(Cl)nc2ccccn12", 120],
  ["COc1ccc(Nc2cc(Cl)ccc2C(=O)O)cn1", 109],
  ["O=C1CSc2ccccc2N1", 115]
]}

* * *

Tested on: UACC-257 melanoma
protocol_summary: NCI-60 one-dose screen, 48 h (100 = growth as untreated, 0 = no growth, -100 = all killed)
condition_notes: 10 µM unless noted
This is part of a sample that, as a whole, favours compounds with a hit. Of some 83,000 tested, about 20% had one in any assay.
observation_type: growth (%)

{"columns": ["compound", "observation_type", "recorded_value"],
 "data": [
  ["Cc1c(Cl)cccc1N=C=S", "growth", 92.7],
  ["N#Cc1ccc2nc[nH]c2c1", "growth", 97.9],
  ["O=c1n(CC2CO2)c(=O)n(CC2CO2)n1CC1CO1 (stereo not drawn)", "growth", 86.6],
  ["Cc1ccccc1NC(=O)Oc1ccc(Cl)cc1C(=O)c1ccccc1", "growth", 102],
  ["Cc1ccc(NCN2C(=O)c3ccccc3C2=O)c(C)n1", "growth", 105],
  ["CCOC(OCC)C(=O)c1ccccc1", "growth", 85.9],
  ["Cc1cccc(-[n+]2noc(N)n2)c1", "growth", 95.2],
  ["C=CCN1CCCC1=O", "growth", 119],
  ["CC(=O)/C(C)=N\\OC(=O)Nc1ccccc1", "growth", 98.7],
  ["FC(F)(F)c1cc(NC2=NCCN=C(Nc3cc(C(F)(F)F)cc(C(F)(F)F)c3)SS2)cc(C(F)(F)F)c1", "growth", 64.4],
  ["CCOC(=O)C(CCC#N)(CCC#N)C(=O)OCC", "growth", 103],
  ["Cc1onc(-c2ccccc2Cl)c1C(=O)Cl", "growth", 103],
  ["CCOc1ccncc1[N+](=O)[O-]", "growth", 95.2],
  ["C/C(O)=C(/C=N\\C(=S)Nc1ccc(S(=O)(=O)Nc2nccs2)cc1)C(=O)Nc1ccccc1C", "growth", 109],
  ["COc1ccc(Br)c2c1C(=O)CC2", "growth", 119],
  ["CCCCCCCCCCCCCCCCOc1ccccc1NC(=O)CC(C)=O", "growth", 117],
  ["NC(CO)(CO)c1ccccc1", "growth", 96.5],
  ["CC(=O)C1C(=O)C(=O)N(c2ccc(Cl)c(Cl)c2)C1=O (stereo not drawn)", "growth", 109],
  ["CC(=O)NCNC(C)=O", "growth", 95.4],
  ["Cc1ccc2[nH]c3ccccc3c2c1", "growth", 104],
  ["O=C(O)CSCC(=O)Nc1cc(C(F)(F)F)ccc1Cl", "growth", 103],
  ["Cc1cc(NC(=O)c2ccccc2)c(Cl)cc1N", "growth", 100],
  ["O=C1NC(=O)/C(=C\\c2ccncc2)N1", "growth", 97.7]
]}

* * *

System: PC-3 prostate
protocol_summary: NCI-60 one-dose screen, 48 h
condition_notes: 10 µM unless noted
About 83,000 compounds went through this panel and 20% of them were active in at least one assay; those are over-represented in the sample as a whole. Active and inactive are the calls of the source. The calls were made as follows: active = growth percent below 10; inactive = the rest.
Possible outcomes: active, inactive

{"columns": ["compound", "experimental_system", "cat"],
 "data": [
  ["CCN(CC)c1ccc2nc3ccc(N=Nc4ccc(N(C)C)cc4)cc3[n+](-c3ccccc3)c2c1", "PC-3 prostate", "active"],
  ["Cn1c(=O)c2[nH]c(CCCCC(=O)O)nc2n(C)c1=O", "PC-3 prostate", "inactive"],
  ["Cc1ccc2[nH]c3ccccc3c2c1", "PC-3 prostate", "inactive"],
  ["OCC1OC(n2ccc3c2ncn2ncnc32)C(O)C1O (stereo not drawn)", "PC-3 prostate", "inactive"],
  ["COc1nc2ccccc2s1", "PC-3 prostate", "inactive"],
  ["Cn1c(=O)c2nc3c(=O)n(C)c(=O)n(C)c3nc2n(C)c1=O", "PC-3 prostate", "inactive"],
  ["C[n+]1c(/C=C\\C=C\\N2CCCCC2)sc2ccccc21", "PC-3 prostate", "active"],
  ["CC(C)(CC(=O)O)CC(=O)O", "PC-3 prostate", "inactive"],
  ["O=S(Cc1ccccc1)/C(=C/NC(=S)Nc1ccccc1)c1ccccc1 (stereo not drawn)", "PC-3 prostate", "inactive"],
  ["OC1Cc2ccccc2C1", "PC-3 prostate", "inactive"],
  ["CCOC(OCC)C(=O)c1ccccc1", "PC-3 prostate", "inactive"],
  ["OCCNc1ccccc1", "PC-3 prostate", "inactive"],
  ["C#CC(O)c1ccccc1 (stereo not drawn)", "PC-3 prostate", "inactive"],
  ["O=C(O)CSCC(=O)Nc1cc(C(F)(F)F)ccc1Cl", "PC-3 prostate", "inactive"],
  ["COc1ccc(Br)c(C=O)c1", "PC-3 prostate", "inactive"],
  ["C=CC1=NC(C)(C)CC(C)O1 (stereo not drawn)", "PC-3 prostate", "inactive"],
  ["CC(=O)N=c1ccc2nc3c(cc(N)c4ccccc43)oc-2c1", "PC-3 prostate", "active"],
  ["Cc1c(Cl)cccc1NC(=S)NC(=O)c1ccccc1", "PC-3 prostate", "inactive"],
  ["O=C(O)Cc1cccc2ccccc12", "PC-3 prostate", "inactive"],
  ["CNc1ccccc1C(=O)N/N=C/C=C/c1ccccc1", "PC-3 prostate", "inactive"],
  ["c1ccc2c(NCCCN3CCN(CCCNc4c5ccccc5nc5ccccc45)CC3)c3ccccc3nc2c1", "PC-3 prostate", "active"],
  ["Nc1ccc2ccccc2c1-c1c(N)ccc2ccccc12", "PC-3 prostate", "inactive"],
  ["O=C(CCl)Nc1ccccc1SCc1cc(Cl)cc2c1OCOC2", "PC-3 prostate", "inactive"],
  ["O=C(OC1CCCC1)c1ccccc1Cl", "PC-3 prostate", "inactive"],
  ["O=C(c1ccc(Cl)cc1)N1CCCCC1", "PC-3 prostate", "inactive"],
  ["COc1cc(C(=O)N2CCN(c3ccccc3)CC2)c2ccccc2n1", "PC-3 prostate", "inactive"],
  ["COc1c(CNC(=O)CCl)cc2[nH]c(C)cc2c1CNC(=O)CCl", "PC-3 prostate", "inactive"],
  ["Oc1cccnc1CN1CCCC1", "PC-3 prostate", "inactive"],
  ["NNc1ncccn1", "PC-3 prostate", "inactive"],
  ["CCN(CC)CCN1CNC(=S)NC1", "PC-3 prostate", "inactive"],
  ["CC(=O)c1cccc(O)c1", "PC-3 prostate", "inactive"],
  ["Cn1c2ccccc2c2nnc(NCCCCO)nc21", "PC-3 prostate", "inactive"],
  ["Cc1cccc(C)c1NC(=S)/N=C\\c1c(O)[nH]c(=O)[nH]c1=O", "PC-3 prostate", "inactive"],
  ["Cc1ccc(S(=O)(=O)NC(=O)NCCSSCCNC(=O)NS(=O)(=O)c2ccc(C)cc2)cc1", "PC-3 prostate", "inactive"],
  ["COc1ccc(C)cc1NC(=O)SC(C)C", "PC-3 prostate", "inactive"],
  ["CS(=O)CC(=N\\O)/C(CS(C)=O)=N\\O (stereo not drawn)", "PC-3 prostate", "inactive"],
  ["Cc1ccc(C)c2c1CCC2=O", "PC-3 prostate", "inactive"],
  ["CN1CCN(C(=S)S)CC1", "PC-3 prostate", "inactive"],
  ["N#C/C(=C\\c1ccc2c(c1)OCO2)c1ccccc1", "PC-3 prostate", "inactive"],
  ["Nc1c(Br)cc(O)c2c1C(=O)c1ccccc1C2=O", "PC-3 prostate", "inactive"],
  ["Cc1ccc(N)c(S(=O)(=O)O)c1", "PC-3 prostate", "inactive"],
  ["COC(CCCl)c1ccc(Cl)cc1 (stereo not drawn)", "PC-3 prostate", "inactive"],
  ["CCC12OC(COc3ccccc3)CN1CCN2c1ccccc1 (stereo not drawn)", "PC-3 prostate", "inactive"],
  ["C=CCC(O)C=C (stereo not drawn)", "PC-3 prostate", "inactive"],
  ["CN(C)c1ccc2c(N(C)C)cc(N(C)C)nc2c1", "PC-3 prostate", "inactive"],
  ["O=C(O)CCCCCNC(=O)OCc1ccccc1", "PC-3 prostate", "inactive"],
  ["CC12CCC3c4ccc(O)cc4CCC3C1CCC2=O (stereo not drawn)", "PC-3 prostate", "inactive"],
  ["COC(=O)c1cccc([N+](=O)[O-])c1", "PC-3 prostate", "inactive"],
  ["CC(=O)N(C(C)=O)c1ccc(C)cc1", "PC-3 prostate", "inactive"],
  ["Cc1ccc([N+](=O)[O-])c(C)n1", "PC-3 prostate", "inactive"],
  ["CCOC(=O)C1(N)CCCCC1", "PC-3 prostate", "inactive"],
  ["O=C1NC(=O)C(c2ccccc2)O1 (stereo not drawn)", "PC-3 prostate", "inactive"],
  ["c1ccc2[nH]c(Cc3nc4ccccc4[nH]3)nc2c1", "PC-3 prostate", "inactive"]
]}

The values you see were collected from PubChem BioAssay (NCI).
